# TARGET_OR_SYSTEM: Cloned human M1 receptor (CHRM1) stably expressed in HEK293 cells (Homo sapiens, UniProt P11229)
# Construct: expressed in transfected cells; host or cells: HEK293
# Sequence (P11229 whole entry): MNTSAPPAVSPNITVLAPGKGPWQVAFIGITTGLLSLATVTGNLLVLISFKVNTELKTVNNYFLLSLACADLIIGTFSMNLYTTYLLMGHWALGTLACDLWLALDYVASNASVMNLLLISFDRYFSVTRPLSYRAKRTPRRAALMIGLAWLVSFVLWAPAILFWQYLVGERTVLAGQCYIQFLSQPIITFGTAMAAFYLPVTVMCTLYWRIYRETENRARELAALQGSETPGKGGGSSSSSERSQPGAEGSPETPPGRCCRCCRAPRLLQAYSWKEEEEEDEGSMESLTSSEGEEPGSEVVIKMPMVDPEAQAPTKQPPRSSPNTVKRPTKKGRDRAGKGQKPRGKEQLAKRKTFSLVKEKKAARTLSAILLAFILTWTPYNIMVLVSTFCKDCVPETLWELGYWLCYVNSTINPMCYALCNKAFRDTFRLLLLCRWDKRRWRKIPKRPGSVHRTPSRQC
# PROCEDURE_TEXT: CHRM1 Ca++ Flux Assay (agonist mode, FDSS 7000EX)
# Assay type: cell-based
# CONDITION: Percent Activity
TEST_READOUT: M1 FDSS PA (%)

Previously resolved entries follow.
O=C(N1CC2(CC[C@@H](N3CCC(c4cc(F)ccc4OC4CC5(COC5)C4)CC3)C2)C1)C1(F)CC1 (single isomer, unassigned) [Example 11A]    9
Fc1ccc(C2CCOCC2)c(C2CCN([C@@H]3CCC4(C3)CN(c3cncnc3)C4)CC2)c1 (single isomer, unassigned) [Example 10D]    55

(I) O=C(N1CC2(CC[C@@H](N3CCC(c4ccccc4OC4CCOCC4)CC3)C2)C1)C1(F)CC1 (single isomer, unassigned) [Example 9F]
(II) CC(C)(O)CCOc1ccccc1C1CCN([C@@H]2CCC3(C2)CN(C(=O)C2(F)CC2)C3)CC1 (single isomer, unassigned)
Pick one: I or II . Which one has the lower reported M1 FDSS PA? # answer = label of selected item
I

(a) FC(F)(F)Oc1ccccc1C1CCN([C@@H]2CCC3(C2)CN(c2ncco2)C3)CC1 (single isomer, unassigned) [Example 10L]
(b) Cc1nc(COc2ccccc2C2CCN([C@@H]3CCC4(C3)CN(C(=O)C3(F)CC3)C4)CC2)no1 (single isomer, unassigned) [Example 7Z]
// which entry has the larger M1 FDSS PA value, a or b ? # answer = label of selected item
b
(b: 77%, a: 50%)
